Task for the reader: assign each of the following molecules its reported melting point.

Give recorded melting point. `S=c1[nH]nc(-c2ccc3ccccc3c2)s1`
254 to 256 °C

Return melting point for the following molecule: `COc1ccccc1-n1c(=O)[nH]c2c(C(N)=O)nc(-c3ccc4[nH]c(SC)nc4c3)nc21`
244 to 245 °C

Kindly indicate its recorded melting point. Item: `COC(=O)[C@@H]1CCCN1C(=O)CCC(=O)c1ccc(Br)cc1`
78 to 82 °C

Look up and state reported melting point for CC(C)(C)C(=O)Oc1ccc(NCC2CCc3ccccc3C2)cc1 (configuration not stated)
75 to 77 °C

Give melting point for `CN(C)CCN(CCN(C)C)c1cccc(-c2nc3cc(Cl)c(Cl)cc3[nH]2)c1`
129 to 132 °C

Output melting point of CCc1nc(OC)c(NC(=O)N2CCN(c3cccc(F)c3)CC2)cc1C(=O)NC(C)C(=O)Nc1cc(CO)cc(Nc2c3ccccc3nc3ccccc23)c1 (configuration not stated)
208 to 210 °C

Give reported melting point value for CP(C)(=O)C(O)C(=O)O (configuration not stated)
206 to 208 °C

Note down melting point recorded for CCC(C)CCCC(C)C1CC(=O)C2(C(=O)O)C3=C(CCC12C)C1(C)CCC(O)CC1CC3 (configuration not stated)
195 to 196 °C

Look up melting point of `CCCc1c2oc(C(=O)O)cc(=O)c2cc2c(=O)ccn(Cc3ccccc3)c12` and report it.
> 250 °C

Tell me melting point reported for `Cn1c(=O)ccc2ccc(N)cc21`
268 to 269 °C

Consider the molecule `O=C(C=Cc1cccnc1)NCCCCC1CCN(Cc2ccccc2)CC1` and give its recorded melting point.
88 to 90 °C

Consider the molecule CC(C)c1nc(CN2C(=O)C3(COc4cc5c(cc43)OCO5)c3ccccc32)co1 (configuration not stated) . State its measured melting point.
118 to 120 °C

In one line, give reported melting point of the entry `NS(=O)(=O)OCCOc1ccc(-n2cncn2)cc1` .
134 to 136 °C

For the molecule `Cc1[nH]c(-c2ccc(F)cc2)c(N)c1C(=O)c1ccccc1` , give its reported melting point.
209 to 210 °C

Indicate its recorded melting point; the molecule in question is `Cc1oc(-c2ccccc2)nc1CCOc1ccc(C[C@H](NC(=O)C=Cc2ccccc2)C(=O)O)cc1`
207 to 209 °C

Supply measured melting point of `Clc1cc2c(cc1Cn1ccnc1)OCO2` in your reply.
99 to 102 °C

Identify measured melting point associated with `COc1ccc2ccc(O)c(-c3nnc(Cl)c4ccccc34)c2c1`
> 210 °C

Answer with reported melting point of `CCOC(=O)c1cc(Br)cc(C(=O)OCC)n1`
95 to 96 °C

For the molecule CC1(C)c2cc(OS(C)(=O)=O)ccc2OC1OC(=O)c1ccccc1 (configuration not stated) , report melting point.
102 to 104 °C

Assign melting point to the following record: `COc1ccc(C=CC(=O)N(C)O)cc1OC`
150 °C

Specify reported melting point for the molecule shown: `Cc1nn(-c2cc(Oc3ccc(C#N)cc3)c(Cl)cc2F)c(=O)n1C(F)F`
175 to 177 °C

Respond only with melting point recorded for `N#Cc1ccc(C(F)(F)F)c(C(F)(F)F)c1`
71 to 72 °C

Using known records, supply melting point for `COc1c(Cl)ccc(-c2cc(N)c(Cl)c(C(=O)NOCc3ccc(C)cc3)n2)c1F`
171 to 174 °C

Quickly give me recorded melting point for O=C1c2c(O)cc(O)cc2OC(c2ccc(O)cc2)C1O (configuration not stated)
221 to 223 °C

// fetch melting point given entry `CCc1c(-c2ccc(OCc3ccccc3)cc2)c2cc(C(C)=O)c3ccc(CO)c1n32`
190 to 191 °C

Provide melting point value for the following molecule: `CCOC(=O)c1c(CCc2ccc(OC)cc2)oc2ccc(Br)cc12`
73 to 75 °C

Read the entry CC(O)C(CCCc1ccccc1)n1ncc2c(=O)[nH]c(Cc3ccc(Br)cc3)nc21 (configuration not stated) and write its reported melting point.
117 °C
